System name: CD64 (FcgRI) (Homo sapiens, UniProt P12314)
Sequence (P12314 16-374): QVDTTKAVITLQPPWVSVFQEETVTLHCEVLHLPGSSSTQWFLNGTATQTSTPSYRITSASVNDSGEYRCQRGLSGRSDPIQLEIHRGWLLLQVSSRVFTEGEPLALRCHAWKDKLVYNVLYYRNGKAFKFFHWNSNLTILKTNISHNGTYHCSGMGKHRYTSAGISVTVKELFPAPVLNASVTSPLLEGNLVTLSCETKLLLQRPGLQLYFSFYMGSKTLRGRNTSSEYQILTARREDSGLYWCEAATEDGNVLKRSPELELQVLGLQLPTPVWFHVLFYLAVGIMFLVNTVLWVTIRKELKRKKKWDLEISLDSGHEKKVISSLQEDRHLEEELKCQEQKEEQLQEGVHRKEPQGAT
Assay name: SPR, antibody binding to anti-his Fab captured FcgR-his (% Rmax)
Details: 1 μM antibody
Sorting guide: entries reporting % Rmax hCD64 beneath 6% go in the 1.0 pile, the rest go in the 0.0 pile.

# example entries with known answers
• mAb12-IgG2.5 (protein, left off: another chain or arm of the molecule) constant: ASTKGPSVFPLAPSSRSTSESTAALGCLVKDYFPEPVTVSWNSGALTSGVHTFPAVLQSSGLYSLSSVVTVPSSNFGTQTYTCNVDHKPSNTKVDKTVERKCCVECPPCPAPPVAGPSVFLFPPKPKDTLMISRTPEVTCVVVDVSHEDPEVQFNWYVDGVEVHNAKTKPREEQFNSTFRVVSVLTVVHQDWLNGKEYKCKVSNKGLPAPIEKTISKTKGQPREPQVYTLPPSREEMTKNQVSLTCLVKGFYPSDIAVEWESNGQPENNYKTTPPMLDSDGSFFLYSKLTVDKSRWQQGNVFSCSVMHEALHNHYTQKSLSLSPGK = 1.0
• mAb7-IgG2.5G1-AY-V27 (protein, left off: another chain or arm of the molecule) constant: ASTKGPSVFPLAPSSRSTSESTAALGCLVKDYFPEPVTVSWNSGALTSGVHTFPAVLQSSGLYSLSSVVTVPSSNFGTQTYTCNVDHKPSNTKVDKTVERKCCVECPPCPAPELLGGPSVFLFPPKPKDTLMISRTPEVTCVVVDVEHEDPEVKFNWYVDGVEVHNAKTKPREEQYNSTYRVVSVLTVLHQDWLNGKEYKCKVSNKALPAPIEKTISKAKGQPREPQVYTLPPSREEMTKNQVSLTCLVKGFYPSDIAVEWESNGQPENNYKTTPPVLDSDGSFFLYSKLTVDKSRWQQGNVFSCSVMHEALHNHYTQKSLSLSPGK = 0.0
• mAb11-IgG2.5 (protein, left off: another chain or arm of the molecule) constant: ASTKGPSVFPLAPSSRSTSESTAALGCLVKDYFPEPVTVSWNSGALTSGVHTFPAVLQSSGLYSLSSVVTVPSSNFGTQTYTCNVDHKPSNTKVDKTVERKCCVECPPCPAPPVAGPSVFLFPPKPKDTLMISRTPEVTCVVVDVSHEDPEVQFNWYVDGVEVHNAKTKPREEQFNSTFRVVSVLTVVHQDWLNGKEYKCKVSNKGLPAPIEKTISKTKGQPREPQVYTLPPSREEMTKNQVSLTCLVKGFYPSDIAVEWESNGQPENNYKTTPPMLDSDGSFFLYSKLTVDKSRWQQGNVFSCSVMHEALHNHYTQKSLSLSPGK = 1.0

Pending molecule:
query: Threshold test, % Rmax hCD64 < 6%: mAb8-IgG2.5 (protein, left off: another chain or arm of the molecule) constant: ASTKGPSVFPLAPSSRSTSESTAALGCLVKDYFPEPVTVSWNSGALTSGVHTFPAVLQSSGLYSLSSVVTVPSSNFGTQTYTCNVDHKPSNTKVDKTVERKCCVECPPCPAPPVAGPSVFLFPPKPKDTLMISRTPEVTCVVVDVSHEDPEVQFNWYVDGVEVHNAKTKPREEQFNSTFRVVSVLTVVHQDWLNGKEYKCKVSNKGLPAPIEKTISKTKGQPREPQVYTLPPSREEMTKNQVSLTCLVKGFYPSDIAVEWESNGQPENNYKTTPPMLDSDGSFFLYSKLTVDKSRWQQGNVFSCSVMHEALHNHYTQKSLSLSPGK
result: 1.0
